Test system: cryopreserved hepatocytes from Sprague Dawley rats
Assay remarks: metabolic stability in rat hepatocytes
Assay type: in vitro ADME
Details: 1 μM, 15 min incubation, percentage turnover
Readout type: Rat (% TO) 15 min
Answers are plain numbers, in % TO.

List reported Rat (% TO) 15 min for each of these molecules:
1. CC(C)N1C[C@H](C)n2c(c(O)c3c(=O)n4nc(c32)N(C)S(=O)(=O)CCCCCOc2cc(F)ccc2C4)C1=O
2. CCN1C[C@H](C)n2c(c(O)c3c(=O)n4nc(c32)N2CCN(CC2)C(=O)CCCOc2cc(F)ccc2C4)C1=O
3. CCN1C[C@H](C)n2c(c(O)c3c(=O)n(Cc4ccc(F)c(Cl)c4)nc(C(=O)NC)c32)C1=O [Compound 52r, reference compound]
4. CCN1C[C@H](C)n2c(c(O)c3c(=O)n4nc(c32)N(C)S(=O)(=O)CCCCOc2cc(F)ccc2C4)C1=O
5. CCN1C[C@H](C)n2c(c(O)c3c(=O)n(Cc4ccc(F)cc4)nc(N(C)S(C)(=O)=O)c32)C1=O [Compound 53r, reference compound]
6. CCN1C[C@@H](C)n2c(c(O)c3c(=O)n(Cc4ccc(F)c(Cl)c4)nc(N4CCN(C)S4(=O)=O)c32)C1=O [Compound 54r, reference compound]

a:
1. 21
2. 48
3. 38
4. 30
5. 60
6. 32

* * *

Assay remarks: pharmacokinetic evaluation in the rat
Format: in vivo, male Sprague-Dawley rats
Details: intravenous bolus 2 mg/kg, plasma clearance
Readout type: CLp (mL/min/kg)
Answers are plain numbers, in mL/min/kg.

List reported CLp for each of these compounds:
1. CCN1CCCCCOc2cc(F)c(Cl)cc2Cn2nc(c3c(c(O)c4n3[C@@H](C)CN(CC)C4=O)c2=O)C1=O
2. CCN1C[C@H](C)n2c(c(O)c3c(=O)n4nc(c32)N(C)S(=O)(=O)CCCCCOc2cc(F)ccc2C4)C1=O
3. CCN1C[C@H](C)n2c(c(O)c3c(=O)n4nc(c32)NCCCCCCNC(=O)c2cc(F)ccc2C4)C1=O
4. CCN1C[C@H](C)n2c(c(O)c3c(=O)n4nc(c32)N2CCN(CC2)C(=O)CCCCOc2cc(F)ccc2C4)C1=O
5. CCN1C[C@H](C)n2c(c(O)c3c(=O)n4nc(c32)C(=O)N(C)CCCCCOc2cc(F)ccc2C4)C1=O
6. CCN1C[C@H](C)n2c(c(O)c3c(=O)n4nc(c32)N(C)S(=O)(=O)CCCCNC(=O)c2cc(F)ccc2C4)C1=O

a:
11
8
7
8
13
12

* * *

Assay remarks: pharmacokinetic evaluation in the rat
Type: in vivo, male Sprague-Dawley rats
Details: intravenous bolus 2 mg/kg, terminal phase elimination half-life
# if measured t1/2 < 5 h: satisfied  # else: not satisfied

q: Below 5 h on t1/2? Entry CCN1C[C@H](C)n2c(c(O)c3c(=O)n4nc(c32)N2CCN(CC2)C(=O)CCCOc2cc(F)ccc2C4)C1=O
a: not satisfied

q: Below 5 h on t1/2? Entry CC(C)N1C[C@H](C)n2c(c(O)c3c(=O)n4nc(c32)N(C)S(=O)(=O)CCCCOc2cc(F)ccc2C4)C1=O
a: not satisfied

q: Below 5 h on t1/2? Entry CCN1CCCCCOc2cc(F)c(Cl)cc2Cn2nc(c3c(c(O)c4n3[C@@H](C)CN(CC)C4=O)c2=O)C1=O
a: satisfied

q: Below 5 h on t1/2? Entry CCN1C[C@H](C)n2c(c(O)c3c(=O)n4nc(c32)C(=O)N(C)CCCCCOc2cc(F)ccc2C4)C1=O
a: not satisfied

q: Below 5 h on t1/2? Entry CCN1C[C@H](C)n2c(c(O)c3c(=O)n4nc(c32)N(C)S(=O)(=O)CCCCOCc2cc(F)ccc2C4)C1=O
a: satisfied

q: Below 5 h on t1/2? Entry CCN1C[C@H](C)n2c(c(O)c3c(=O)n4nc(c32)NCCCCCCNC(=O)c2cc(F)ccc2C4)C1=O
a: not satisfied

q: Below 5 h on t1/2? Entry CCN1C[C@H](C)n2c(c(O)c3c(=O)n4nc(c32)N2CCN(CC2)C(=O)CCCCOc2cc(F)ccc2C4)C1=O
a: satisfied

q: Below 5 h on t1/2? Entry CC(C)N1C[C@H](C)n2c(c(O)c3c(=O)n4nc(c32)N(C)S(=O)(=O)CCCCCOc2cc(F)ccc2C4)C1=O
a: satisfied

* * *

Assay remarks: pharmacokinetic evaluation in the rat
Format: in vivo, male Sprague-Dawley rats
Details: male, Sprague-Dawley, plasma, iv, 2 mg/kg, intravenous bolus 2 mg/kg, volume of distribution at steady-state, read-out: Vss
Readout type: Vd (L/kg)
Answers are plain numbers, in L/kg.

Worked cases, answers included:
CCN1C[C@H](C)n2c(c(O)c3c(=O)n(Cc4ccc(F)cc4)nc(N(C)S(C)(=O)=O)c32)C1=O [Compound 53r, reference compound] : 2.9
CCN1C[C@@H](C)n2c(c(O)c3c(=O)n(Cc4ccc(F)c(Cl)c4)nc(N4CCN(C)S4(=O)=O)c32)C1=O [Compound 54r, reference compound] : 2.2
CCN1C[C@H](C)n2c(c(O)c3c(=O)n4nc(c32)N(C)S(=O)(=O)CCCCOc2cc(F)ccc2C4)C1=O : 0.8

Now turn to the next compound.
q: # return recorded Vd for entry CCN1C[C@H](C)n2c(c(O)c3c(=O)n(Cc4ccc(F)c(Cl)c4)nc(C(=O)NC)c32)C1=O [Compound 52r, reference compound]
a: 0.2

* * *

System: cryopreserved hepatocytes from Sprague Dawley rats
Assay remarks: metabolic stability in rat hepatocytes
Type: in vitro ADME
Details: 1 μM, 60 min incubation, percentage turnover
So I've got a bunch of compounds here, and I need their Rat (% TO) 60 min values.
Numbers only, in % TO.

CCN1C[C@H](C)n2c(c(O)c3c(=O)n(Cc4ccc(F)cc4)nc(N(C)S(C)(=O)=O)c32)C1=O [Compound 53r, reference compound] : 89

List reported Rat (% TO) 60 min for each of these compounds:
1. CCN1C[C@H](C)n2c(c(O)c3c(=O)n4nc(c32)N(C)S(=O)(=O)CCCCOCc2cc(F)ccc2C4)C1=O
2. CCN1C[C@H](C)n2c(c(O)c3c(=O)n(Cc4ccc(F)c(Cl)c4)nc(C(=O)NC)c32)C1=O [Compound 52r, reference compound]

a:
[86, 76]

* * *

Assay remarks: pharmacokinetic evaluation in the rat
Format: in vivo, male Sprague-Dawley rats
Details: intravenous bolus 2 mg/kg, volume of distribution at steady-state
So I've got a bunch of molecules here, and I need their Vss values.
Answers are plain numbers, in L/kg.

Worked cases, answers included:
CC(C)N1C[C@H](C)n2c(c(O)c3c(=O)n4nc(c32)N(C)S(=O)(=O)CCCCOc2cc(F)ccc2C4)C1=O : 0.7
CCN1C[C@H](C)n2c(c(O)c3c(=O)n4nc(c32)N(C)S(=O)(=O)CCCCCOc2cc(F)ccc2C4)C1=O : 1.5
CC(C)N1C[C@H](C)n2c(c(O)c3c(=O)n4nc(c32)N(C)S(=O)(=O)CCCCCOc2cc(F)ccc2C4)C1=O : 0.9

List reported Vss for each of these molecules:
1. CCN1C[C@H](C)n2c(c(O)c3c(=O)n4nc(c32)N2CCN(CC2)C(=O)CCCCOc2cc(F)ccc2C4)C1=O
2. CCN1C[C@H](C)n2c(c(O)c3c(=O)n4nc(c32)C(=O)N(C)CCCCCOc2cc(F)ccc2C4)C1=O
3. CCN1C[C@H](C)n2c(c(O)c3c(=O)n4nc(c32)N(C)S(=O)(=O)CCCCOCc2cc(F)ccc2C4)C1=O
4. CCN1C[C@H](C)n2c(c(O)c3c(=O)n4nc(c32)NCCCCCCNC(=O)c2cc(F)ccc2C4)C1=O

a:
1. 0.9
2. 6
3. 0.7
4. 0.7

* * *

So I've got a bunch of compounds here, and I need their Vss values.
Assay remarks: pharmacokinetic evaluation in the rat
Format: in vivo, male Sprague-Dawley rats
Details: intravenous bolus 2 mg/kg, volume of distribution at steady-state
Protocol: For determining the pharmacokinetic properties in rat, each HIV integrase inhibitor was dissolved in PEG400/normal saline (70:30 (v/v)) at a nominal concentration of 1 mg/ml and administered (2 ml/kg) to male Sprague-Dawley rats (n=3 per test compound) as an intravenous bolus via a saphenous vein at a dose level of 2 mg/kg. […] Plasma was obtained by centrifugation and stored at −20° C. prior to analysis. […]
Give bare numbers, in L/kg.

CCN1C[C@H](C)n2c(c(O)c3c(=O)n4nc(c32)N2CCN(CC2)C(=O)CCCOc2cc(F)ccc2C4)C1=O [Compound 44] : 1.8
CCN1C[C@H](C)n2c(c(O)c3c(=O)n4nc(c32)N(C)S(=O)(=O)CCCCNC(=O)c2cc(F)ccc2C4)C1=O [Compound 22] : 0.6

Now turn to the next compound.
q: # return recorded Vss for entry CCN1CCCCCOc2cc(F)c(Cl)cc2Cn2nc(c3c(c(O)c4n3[C@@H](C)CN(CC)C4=O)c2=O)C1=O [Compound 33]
a: 1.3
